TARGET: Aurora A (Homo sapiens, UniProt O14965)
Sequence (O14965 whole entry): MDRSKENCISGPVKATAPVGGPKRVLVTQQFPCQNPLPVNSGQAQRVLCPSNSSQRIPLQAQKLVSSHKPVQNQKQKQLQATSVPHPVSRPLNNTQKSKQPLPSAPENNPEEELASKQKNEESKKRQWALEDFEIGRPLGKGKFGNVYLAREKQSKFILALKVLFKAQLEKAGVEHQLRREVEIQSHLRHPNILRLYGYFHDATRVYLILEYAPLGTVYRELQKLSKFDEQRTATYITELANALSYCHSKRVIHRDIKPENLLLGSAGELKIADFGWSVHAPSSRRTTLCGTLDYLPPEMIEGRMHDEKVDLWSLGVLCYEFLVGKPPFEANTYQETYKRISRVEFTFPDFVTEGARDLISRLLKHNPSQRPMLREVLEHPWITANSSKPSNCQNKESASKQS
METHOD: Aurora-A microfluidic kinase assay
Assay type: biochemical
CONDITION DESCRIPTION: biochemical; mean of two determinations or mean ±SD for n > 2
MEASUREMENT LABEL: IC50 (nM)
Give the value, in units of nM, as a plain number.

Problem: Fill in the recorded IC50 for this molecule, with Aurora A (Homo sapiens, UniProt O14965) as test system: Cc1nn(C)cc1-c1nc2c(-c3cnn(Cc4cccc(C(=O)N(C)C)c4)c3)c(Cl)cnc2[nH]1 [Compound 14a]
Solution: 36

Problem: Fill in the recorded IC50 for this molecule, with Aurora A (Homo sapiens, UniProt O14965) as test system: Cc1nn(C)cc1-c1nc2c(-c3cnn(Cc4cccc(C(=O)N5CCN(C)CC5)c4)c3)c(Cl)cnc2[nH]1 [Compound 14b]
Solution: 46

Problem: Fill in the recorded IC50 for this molecule, with Aurora A (Homo sapiens, UniProt O14965) as test system: Cc1nn(C)cc1-c1nc2c(-c3cnn(Cc4ccccc4C(=O)N4CCN(C)CC4)c3)c(Cl)cnc2[nH]1 [Compound 14c]
Solution: 126

Problem: Fill in the recorded IC50 for this molecule, with Aurora A (Homo sapiens, UniProt O14965) as test system: Cc1nn(C)cc1-c1nc2c(-c3cnn(Cc4ccccc4)c3)c(Cl)cnc2[nH]1 [Compound 7a]
Solution: 212

Problem: Fill in the recorded IC50 for this molecule, with Aurora A (Homo sapiens, UniProt O14965) as test system: Cc1cc(Cn2cc(-c3c(Cl)cnc4[nH]c(-c5cn(C)nc5C)nc34)cn2)no1 [Compound 14d]
Solution: 35

The measured values listed here are drawn from paper PMC4577729.
